PROCEDURE DETAILS: protease stability score; higher = more stable; yeast display proteolysis, trypsin and chymotrypsin
ENDPOINT NAME: protease stability score
Just the number, please, no unit after it.

Some solved cases for reference:
>  <RESIDUE SEQUENCE>
DEEEHELLHFVHLWIDILRTGDWEKISEYADPNVKLIVGDKIFIGMEAFIEFMERFLRRVDHVQYEIRSIRAYDGVIEMHTEVREHQGDKEIHTEVHITFFVYNGVKKHIEIRIK

>  <ENDPOINT NAME>
protease stability score

>  <READOUT NUMBER>
2.48

$$$$
>  <RESIDUE SEQUENCE>
SHVEQESREIFEQIVRNLKTGDEDLLTELLDPNTLHIVNGVEIHGMEIVAKFLLDWRRKVKNIRIHDEEERHIEIYGDKVISHVDMDGIVNGRRVRRENIWIAEKVDGRWVIREVEVR

>  <ENDPOINT NAME>
protease stability score

>  <READOUT NUMBER>
1.94

$$$$

Read the next record carefully.
QUERY: Name the recorded protease stability score for `SEDEELVRKATEDFINMHRTGDEDELRKMMDPDDKLRIGDKEVIGREAVITWLMEWLKKMGVNHIRFHRVHLFDGKIHVDGELHIGDKEFEIHIFALKINGRWIRESEEIK` .
RESULT: 1.39

====

PROCEDURE DETAILS: protease stability score; higher = more stable; yeast display proteolysis, trypsin and chymotrypsin
Please note: Y applies when protease stability score is 2 or greater, and N applies otherwise.

Check out these entries, answers already filled in.
>  <RESIDUE SEQUENCE>
DVEQEISKTLVHLWVFALLTGDEHLIRKLADPHVRLDIDGVTIVGMDLVAKRITELRIERFTIEDVKFEIQGDKLISIMDTKVDGRIGDKRIETRVIILLIFEKIDGRWQLSTSSEEKR

>  <GROUP>
N

$$$$
>  <RESIDUE SEQUENCE>
DEDHELAEDAIRWMSKIMLTGNEEHLHEMFDPDARIRFEGRSSHGWEEMIHFIRHIRIYIKESRIRDVRIQGDKIDVIGEVKIVIRIGDKIHEDTRDVYILVVKVDGRWTVRSFELV

>  <GROUP>
N

$$$$
>  <RESIDUE SEQUENCE>
SEDEEEVKHMVDEWWKQVLTGDEESLMRLIDPHAKLDFENVTYHGRDELSRYLTKLLREIRFRDIKIHDVRVYDGKVDLHTHMNIIVDGRTHILDTRMIIVKINGRWYIHQVRIK

>  <GROUP>
Y

$$$$
>  <RESIDUE SEQUENCE>
SEDFHRIFHMLELIIRAWITGDEELLEKLADPHVRIDIDGVDIVGMELVSTFLHEIRFDLKQIRFKDIHVVNGRIRLHGESDVHVQIGDKEYEIRSEEEWIVTKVNGQWRLTEVRYL

>  <GROUP>
Y

$$$$

Now let's try a different one.
QUERY: Evaluate `SEDEEAAKHMFELLVHHIETGDEESLRKLLDPNVRMDIDGRIIHGREIFARQMFLESLHIRTEFRLKHVDTIGEKLHLFTEVTYKINGVHIKRDTRVIILKVDGRWVFHSIRFE` : protease stability score at minimum 2?
RESULT: N

====

PROCEDURE DETAILS: protease stability score; higher = more stable; yeast display proteolysis, trypsin and chymotrypsin;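 further: relative to predicted unfolded state with 0 unfolded-like and 1 meaning tenfold more protease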
Entries and their protease stability score
Just the number, please, no unit after it.

Some solved cases for reference:
>  <RESIDUE SEQUENCE>
SEREEYLEEMFHLFIHYLLTGDWELLINLMDPHARNEIHINGVIFLVHGRELVKEIWERFRKHIRIKHIHVEELRVQGDKAESHTWVHYTIDGRESRVFTRVEIRIIDGVVRRISVEIR

>  <protease stability score>
1.72

$$$$
>  <RESIDUE SEQUENCE>
DEEERSAKDFSERVFEEDRTGDEERWERLADPNVRLDINGKEHHGRELVMKYRLEFLRRVKNMVIRLEHIEIRVFDGKLTLHIHGVINVDGKTIHFDLIIIVRKVDGRWRIDEVIIEIK

>  <protease stability score>
1.4

$$$$
>  <RESIDUE SEQUENCE>
TEELEELEKMLELVLRSFHTGDEHLLERLADPHAKYHFNGKNLHGWDKLSHLWRKAGVEKVESRIRDLELQGDYVNTDVEMRYNGRTEEVEFRVKKIDGRWIIKEIIIR

>  <protease stability score>
0.809

$$$$
>  <RESIDUE SEQUENCE>
DEDTEIAFELVDLVMKSLKTGDEHLMLRLMDPHTRLEVGDKEHHGWEEILKELSEIRIHLEDVDHRDVRIYGEKIHVDVEVDITIEYNGRRTRVKTRLEVDILKVNGQWRVKQVSLK

>  <protease stability score>
2.07

$$$$

QUERY: Name the recorded protease stability score for `SEDHHSLRNAWELLIKSIKTGDENLMERFADPSTKSRIDGVELVGREEVVHYFMQLRVKDVKLDEVDVVDGRVVIDGTLHGEYNGREETHKVRLFINKVDGQWILHSVEFH` .
RESULT: 0.938

QUERY: Name the recorded protease stability score for `SEHDEELRHASEKLWHDILTGDWKSIKELADPNVRVIIWQGEKEINLHGREEVTRVIKEMGFKHTHIEHQSTINGRMIVDNHSNINGKRVHLHFVIEKINGRWFLHEMRIEFE` .
RESULT: 1.47

====

PROCEDURE DETAILS: protease stability score; higher = more stable; yeast display proteolysis, trypsin and chymotrypsin;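 further: relative to predicted unfolded state with 0 unfolded-like and 1 meaning tenfold more protease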
Entries and their protease stability score

QUERY: Name the recorded protease stability score for `DEDKDMKDTMLKDLLHTLETGDEDIWAKLIDPNTQVDIGDKRIHGREKIVEHFRRADVLTIHHVRLRQFHHFDGRAHMNVQFDGTVQINGVEVRFDVTVKLVFLKVNGRWFLHSEERE` .
RESULT: 1.15

QUERY: Name the recorded protease stability score for `SEDEELVDHAWETYLRNLLTGDERTLADLIDPHVRVHINGVEFIGREELIKWLSEIRIRTIRVRRRSLINGRVEIIVDLELQVGDKHDRVTIYLIMDKFDGRWIHHTFSVE` .
RESULT: 0.41

QUERY: Name the recorded protease stability score for `DEENHHTREIFKMTLKEVFTGNEEMTTRLLDPHVRVQVGDKTIHGWKHFTHIFFRLRHEFGVDHVQLRHLEIIGNKAVIHFSVYVGEWTYEFTIHALKVNGRWVLESLEVHQI` .
RESULT: 1.5

====

PROCEDURE DETAILS: protease stability score; higher = more stable; yeast display proteolysis, trypsin and chymotrypsin;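 further: relative to predicted unfolded state with 0 unfolded-like and 1 meaning tenfold more protease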
Entries and their protease stability score
Just the number, please, no unit after it.

Some solved cases for reference:
>  <RESIDUE SEQUENCE>
DEHEEDMERFLRELLDHWRTGDEDVIRELMDPHVKVDINGKIHHGREEAVHFLIEMRFRHFHVHDLRVQGEKADVDGRTHMEYNGRTVDQRITIHLVKIDGKWREKSITLE

>  <READOUT NUMBER>
1.24

$$$$
>  <RESIDUE SEQUENCE>
SDEEHQWELAFRFWITILKTGDEDHFERLADPHYLLQIGDKHVVGREQIAREIEKYRRELGVDHSHFDVDHIQVVGDKVEIQGSLEIRVGDKSIHHTTRTIIRKVDGRWLLKKVHFG

>  <READOUT NUMBER>
1.23

$$$$
>  <RESIDUE SEQUENCE>
SEEKKAIDEVLRLIFEAELTGNEDELEHLIDPHVKFHIDGVDVHGWEYLSYWIRQIRIHNLHPRSVEIHVYNGRVEVNIRGHYEGTINGRRTTFDMRVHIRIEKIDGVWIVREMSRHNH

>  <READOUT NUMBER>
1.7

$$$$
>  <RESIDUE SEQUENCE>
DEHEELMRRLMQLWMENWLTGDEDVLYKLADPNAKWDINGVKLHGREKMNEDRKEILERHGATFYLEIRDFTVINGRAHVDGHEDYIINGKRIRTDVQIILVIVNGKFKSEEVKIR

>  <READOUT NUMBER>
0.292

$$$$
>  <RESIDUE SEQUENCE>
DDLEKIVLRMLNLWLKSILTGDEEFEEHYADPNVRYEINGVELHGRERFSQWLTDLRRKFKNIRIEIRVHHTEAQGDKMRSEEELIIDFEGRQINREVRIDMKVIDGRIKEVKVHII

>  <READOUT NUMBER>
1.42

$$$$

QUERY: Name the recorded protease stability score for `SDIEEMYRINLEIFEHSQQTGDWRMISHMADPNVRISVGDKEIHGRELFEKHLRDTVEKLGAEVHWELNHVRIQGDKLLVRGHLRIKYGDKHETFDIELYADKVDGKWLIHEIRVD` .
RESULT: 1.44

====

PROCEDURE DETAILS: protease stability score; higher = more stable; yeast display proteolysis, trypsin and chymotrypsin;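 further: relative to predicted unfolded state with 0 unfolded-like and 1 meaning tenfold more protease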
Please note: y applies when protease stability score is 1 or greater, and n applies otherwise.

>  <RESIDUE SEQUENCE>
DEDDKRSEKYLQKLLTDTHTGDETAYRDLADPHVRIEFNGREWHGWKRAHEVFHRILEEMRLKDLRIEDVRKQGEKVRLHIRLHSTVDGKQVDLELEIILLKVNGQWYIKDVTLI

>  <GROUP>
n

$$$$
>  <RESIDUE SEQUENCE>
SEESEKLERMMRLIMHLLWTGDEETFKRLADPDTRFIYGDFEVHGREDVSRMWIKLLNELRIHSLHVEEVHTIDGRIHAKTEVDGRYNGQHERTKLELIIVIINGRIHTVEIRPK

>  <GROUP>
y

$$$$
>  <RESIDUE SEQUENCE>
TEEEEELRRIEHLTIELIETGDEDTLKRLADPNARLNIEFNGVHIHSHGREEMARLLHEWYRTMGIKHEELKRSEIQGDKVILHTELRIGDKTVSTIIITLVINGRIKWIRIIIK

>  <GROUP>
y

$$$$

QUERY: Evaluate `DHLDERAERFFLKLVENLLTGNEEIWEELIDPNMRFHAENHSDHGWEVIRRWMERLIERFDHIEIRVHRLRFQGDKVHSDVRVHYEQGDKREEINMHIIIIIINGRIHTIRLIIL` : protease stability score at minimum 1?
RESULT: n

QUERY: Evaluate `DHKTKMREHAVHEWFDDVITGDERRIREYADPNVRIDIDINGRHEELHGRELFSEILTRFKNVQVEIKHVNHIGDKLHIHFRVHIDGREENVIIIMHKVDGKWVTKRFIIDDA` : protease stability score at minimum 1?
RESULT: y

QUERY: Evaluate `SEDEEWAKRMADNILEFLNTGDFREFSKELDPNTILRIDGREIHGMELVETHLEHARMRVDDWEIRSVRSVNGKLDVDMRLDGKLRFDGKEHYRKTESILIILKVDGKWRIHNIHVR` : protease stability score at minimum 1?
RESULT: y
